Origin of values: patent US5354862A

Tested on: Pseudomonas aeruginosa
Protocol Details: Broth two-fold serial dilution MIC test
Format: cell-based, Pseudomonas aeruginosa (ATCC 15442)
Condition Details: Table 2; Psae; TSB media
Assign MIC to each entry below.
State the answer as a number, implicitly in ppm.

MIC lookup needed for CCCCCCCCCCCCCCC[N+]1(CC#CI)CCCC1 [Compound 10] , thanks.
250

MIC lookup needed for CCCCCCCCCCCCOC(=O)C[N+]1(CC#CI)CCCC1 [Compound 63] , thanks.
125

MIC lookup needed for CCCCCCCCCCOC(=O)C[N+]1(CC#CI)CCCC1 , thanks.
250

MIC lookup needed for CCCCCCCCCCCCCC[N+]1(CC#CI)CCCCC1 [Compound 25] , thanks.
2

====

Assign MIC to each entry below.
Tested on: Pseudomonas aeruginosa
Protocol Details: Broth two-fold serial dilution MIC test
Type: cell-based, Pseudomonas aeruginosa (ATCC 15442)
Condition Details: Table 2; Psae; TSB media
State the answer as a number, implicitly in ppm.

MIC lookup needed for CCCCCCCCCCCCCC[N+]1(CC#CI)CCOCC1 [Compound 28] , thanks.
4

MIC lookup needed for CCCCCCCCCCCCCC[N+]1(CC#CI)CCCC1 [Compound 69] , thanks.
32

MIC lookup needed for CCCCCCCCCCCCCC[N+]1(CC#CI)C=NCC1.O=S(=O)([O-])c1ccccc1 (centres unmarked) , thanks.
63

MIC lookup needed for CCCCCCCCCCCCCC[N+]1(CC#CI)CCOCC1 [Compound 42] , thanks.
4

====

System: Escherichia coli
Protocol Details: Broth two-fold serial dilution MIC test
Assay type: cell-based, Escherichia coli (ATCC 11229)
Condition Details: Table 2; Ecol; M9G media
Assign MIC to each entry below.
The number alone won't do; follow it with the unit.

MIC lookup needed for CCCCCCCCCCCCCC[N+]1(CC#CI)CCCCC1C (centres unmarked) [Compound 54] , thanks.
8 ppm

MIC lookup needed for CCCCCCCCCCCC[N+]1(CC#CI)CCCC1 [Compound 30] , thanks.
2 ppm

MIC lookup needed for CCCCCCCCCCCCCCC[N+]1(CC#CI)CCCC1 [Compound 10] , thanks.
4 ppm

MIC lookup needed for CCCCCCOC(=O)CCCCC[N+]1(CC#CI)CCOCC1 [Compound 81] , thanks.
64 ppm

MIC lookup needed for CCCCCCCCCCCCCCCC[N+]1(CC#CI)CC(C)OC(C)C1 (centres unmarked) [Compound 48] , thanks.
2 ppm

====

Tested on: Pseudomonas aeruginosa
Protocol Details: Broth two-fold serial dilution MIC test
Assay type: cell-based, Pseudomonas aeruginosa (ATCC 15442)
Condition Details: Table 2; Psae; TSB media
Description: A minimum inhibitory concentration (MIC) value is obtained using a broth, two-fold serial dilution test performed as follows: A stock solution or dispersion of the test compound, typically at a concentration of 1%, is made in a 5:3:2 solvent solution of acetone. methanol, and water. […] When the test is ready to be done, each vessel in the dilution series, except the first vessel, contains an equal volume of compound free broth. […]
Readout Name: MIC (ppm)
State the answer as a number, implicitly in ppm.

MIC lookup needed for CCCCCCCCCCCCCC[N+]1(CC#CI)CCOCC1 [Compound 71] , thanks.
32

MIC lookup needed for CCCCCCCCCCCCOC(=O)C[N+]1(CC#CI)CCOCC1 , thanks.
125

MIC lookup needed for CCCCCCCCCCCCCC[N+]1(CC#CI)CCCCC1 [Compound 59] , thanks.
125

MIC lookup needed for CCCCCCCCCCCC[N+]1(CC#CI)CCCC1 [Compound 79] , thanks.
64

MIC lookup needed for CCCCCCCCCCCCCCCC[N+]1(CC#CI)CCCCC1 [Compound 26] , thanks.
16

MIC lookup needed for CCCCCCCCCCCCCC[N+]1(CC#CI)CCCC1 [Compound 6] , thanks.
4

MIC lookup needed for CCCCCCCCCCCCCC[N+]1(CC#CI)CCCC1 [Compound 39] , thanks.
63

MIC lookup needed for CCCCCCCCCCCCC[N+]1(CC#CI)CCCC1 [Compound 8] , thanks.
16

MIC lookup needed for CCCCCCCCCCCC[N+]1(CC#CI)CCCC1 [Compound 30] , thanks.
63

====

Assign MIC to each entry below.
State the answer as a number, implicitly in µg/mL.

Notebook entry, Enterobacter aerogenes assay: MIC of CCCCCCCCCCCCCC[N+]1(CC#CI)CCCCC1 = ?
1

Notebook entry, Enterobacter aerogenes assay: MIC of IC#CCN1CCOCC1 [Compound J2, N-(3-iodo-2-propynyl)-morpholine, reference compound] = ?
250

Notebook entry, Enterobacter aerogenes assay: MIC of CCCCCCCCCCCCCC[N+]1(CC#CI)CCOCC1 = ?
2

Notebook entry, Enterobacter aerogenes assay: MIC of IC#CCN1CCCCC1 [Compound J1, N-(3-iodo-2-propynyl)-piperidine, reference compound] = ?
32

====

Assign MIC to each entry below.
Test system: Staphylococcus aureus
Protocol Details: Broth two-fold serial dilution MIC test
Format: cell-based, Staphylococcus aureus (ATCC 6538)
Condition Details: Staphylococcus aureus, Table 2; Saur; TSB media; read-out: MIC

MIC lookup needed for CCOC(=O)CC[N+]1(CC#CI)CCCCC1 [Compound 22] , thanks.
> 250 µg/mL

MIC lookup needed for CCCCCCCCCCCCCCCC[N+]1(CC#CI)CC(C)OC(C)C1 (stereo not drawn) [Compound 46] , thanks.
< 0.25 µg/mL

MIC lookup needed for CCCCCCCCCCCCCC[N+]1(CC#CI)CCCCCC1 [Compound 45] , thanks.
< 0.25 µg/mL

MIC lookup needed for OCCCCCCCCC[N+]1(CC#CI)CCCCC1 [Compound 21] , thanks.
> 250 µg/mL

MIC lookup needed for CCCC[N+]1(CC#CI)CCOCC1 [Compound 93] , thanks.
> 500 µg/mL

MIC lookup needed for OCCCCCCCC[N+]1(CC#CI)CCCC1 [Compound 3] , thanks.
> 500 µg/mL

====

Assign log10 MIC to each entry below.
System: Pseudomonas aeruginosa
Protocol Details: Broth two-fold serial dilution MIC test
Format: cell-based, Pseudomonas aeruginosa (ATCC 15442)
Condition Details: Table 2; Psae; M9G media
Would you kindly interpret these values as log10 of MIC expressed in ppm?

Notebook entry, Pseudomonas aeruginosa assay: log10 MIC of CCCCCCCCCCCCCC[N+]1(CC#CI)CCOCC1 [Compound 28] = ?
0.60

Notebook entry, Pseudomonas aeruginosa assay: log10 MIC of CCCCCCCCCCCCC[N+]1(CC#CI)CCCC1 [Compound 36] = ?
1.51

Notebook entry, Pseudomonas aeruginosa assay: log10 MIC of CCCCCCCCCCCCOC(=O)C[N+]1(CC#CI)CCOCC1 = ?
1.81

Notebook entry, Pseudomonas aeruginosa assay: log10 MIC of CCCCCCCCCC[N+]1(CC#CI)CCCC1 = ?
2.40

Notebook entry, Pseudomonas aeruginosa assay: log10 MIC of CCCCCCCCCCCC[N+]1(CC#CI)CCCC1 [Compound 30] = ?
1.80

Notebook entry, Pseudomonas aeruginosa assay: log10 MIC of CCCCCCCCCCCCCC[N+]1(CC#CI)CCOCC1 [Compound 72] = ?
1.20

Notebook entry, Pseudomonas aeruginosa assay: log10 MIC of CCCCCCCCCCCCCCCC[N+]1(CC#CI)CCCCC1 [Compound 26] = ?
0.60

Notebook entry, Pseudomonas aeruginosa assay: log10 MIC of CCCCCCCCCCCCCC[N+]1(CC#CI)CCCC1 [Compound 6] = ?
0.60

Notebook entry, Pseudomonas aeruginosa assay: log10 MIC of CCCCCCCCCCCCCC[N+]1(CC#CI)CCCCC1 [Compound 59] = ?
1.51

Notebook entry, Pseudomonas aeruginosa assay: log10 MIC of CCCCCCCCCCCCCC[N+]1(CC#CI)CCCC1 [Compound 39] = ?
1.80

Notebook entry, Pseudomonas aeruginosa assay: log10 MIC of CCCCCCCCCCCCCC[N+]1(CC#CI)CCCCC1 [Compound 25] = ?
0.90

Notebook entry, Pseudomonas aeruginosa assay: log10 MIC of CCCCCCCCCCCCCCCC[N+]1(CC#CI)CCCCC1 [Compound 61] = ?
1.20

Notebook entry, Pseudomonas aeruginosa assay: log10 MIC of CCCCCCCCCCCCCCC[N+]1(CC#CI)CCCC1 [Compound 33] = ?
0.90

Notebook entry, Pseudomonas aeruginosa assay: log10 MIC of CCCCCCCCCCCCCC[N+]1(CC#CI)C=NCC1.O=S(=O)([O-])c1ccccc1 (centres unmarked) = ?
0.90

Notebook entry, Pseudomonas aeruginosa assay: log10 MIC of CCCCCCCCCCCCCC[N+]1(CC#CI)CCCCC1C (centres unmarked) [Compound 55] = ?
2.10

Notebook entry, Pseudomonas aeruginosa assay: log10 MIC of CCCCCCCCCCCCCC[N+]1(CC#CI)CCOCC1 [Compound 86] = ?
0.90

Notebook entry, Pseudomonas aeruginosa assay: log10 MIC of CCCCCCCCCCCCCC[N+]1(CC#CI)CCOCC1 [Compound 71] = ?
0.90

Notebook entry, Pseudomonas aeruginosa assay: log10 MIC of CCCCCCCCCCCCCC[N+]1(CC#CI)CCOCC1 [Compound 41] = ?
0.30

Notebook entry, Pseudomonas aeruginosa assay: log10 MIC of CCCCCCCCCCCCCCC[N+]1(CC#CI)CCCC1 [Compound 38] = ?
1.51

Notebook entry, Pseudomonas aeruginosa assay: log10 MIC of CCCCCCCCCCCCCCCC[N+]1(CC#CI)CCOCC1 [Compound 49] = ?
0.90

Notebook entry, Pseudomonas aeruginosa assay: log10 MIC of CCCCCCCCCCCCCC[N+]1(CC#CI)CCCC1 [Compound 34] = ?
0.30

Notebook entry, Pseudomonas aeruginosa assay: log10 MIC of CCCCCCCCCCCCCCCC[N+]1(CC#CI)CCOCC1 [Compound 50] = ?
0.90

Notebook entry, Pseudomonas aeruginosa assay: log10 MIC of CCCCCCCCCCCCCCCC[N+]1(CC#CI)CC(C)OC(C)C1 (centres unmarked) [Compound 48] = ?
0.90

Notebook entry, Pseudomonas aeruginosa assay: log10 MIC of CCCCCCCCCCCCCC[N+]1(CC#CI)CCOCC1 [Compound 42] = ?
0.00

Notebook entry, Pseudomonas aeruginosa assay: log10 MIC of CCCCCCCCCCCC[N+]1(CC#CI)CCCC1 [Compound 37] = ?
1.80

Notebook entry, Pseudomonas aeruginosa assay: log10 MIC of CCCCCCCCCCCCCCCC[N+]1(CC#CI)CCCC1 [Compound 32] = ?
1.51

Notebook entry, Pseudomonas aeruginosa assay: log10 MIC of CCCCCCCCCCCCCC[N+]1(CC#CI)CCNC1.O=S(=O)([O-])c1ccccc1 (centres unmarked) = ?
2.10

Notebook entry, Pseudomonas aeruginosa assay: log10 MIC of CCCCCCCCCCCCCC[N+]1(CC#CI)CCCCC1 [Compound 85] = ?
0.90

Notebook entry, Pseudomonas aeruginosa assay: log10 MIC of CCCCCCCCCCOC(=O)C[N+]1(CC#CI)CCOCC1 = ?
2.10

Notebook entry, Pseudomonas aeruginosa assay: log10 MIC of CCCCCCCCCCCCOC(=O)C[N+]1(CC#CI)CCCC1 [Compound 75] = ?
1.51
